# Tested on: HOP-92 NSCLC
# protocol: NCI tumour cell line growth inhibition, 48 h
Could you please report measured TGI for the items listed next?

Look over these answered cases.
{"compound": "C=C[C@@H]1CCC/C=C/[C@@H]2C[C@H](O)C[C@H]2[C@H](O)/C=C/C(=O)O1", "result": "5.95 µM"}
{"compound": "N#Cc1c(N)c(C(=O)c2ccc3c(c2)OCCO3)n2c1CCCC2", "result": "> 100 µM"}

Provide reported TGI for each item, in the same order as listed.
1. COc1ccccc1N1C(=O)CSC1c1cccc(Oc2ccccc2)c1 (configuration not stated)
2. O=C(O)c1nn(-c2ccc(Cl)cc2)c2c1C(=O)c1ccccc1C2=O
3. CSc1c(C(N)=S)c(N)nn1-c1ccccc1

stdout:
["26.5 µM", "> 100 µM", "> 100 µM"]

Provide reported TGI for each item, in the same order as listed.
1. NS(=O)(=O)c1ccc(N=Nc2ccc(O)cc2)cc1
2. CC(C)(C)OC(=O)NC(Cc1ccccc1)C(=S)N1CCCC1 (configuration not stated)
3. COc1ccc(/C(=N/OCCCC(=O)O)c2cccs2)cc1

stdout:
1: > 100 µM; 2: > 100 µM; 3: > 100 µM

Provide reported TGI for each item, in the same order as listed.
1. [N-]=[N+]=C1C(=O)C2CC3CC1CC2C3 (configuration not stated)
2. CC(=O)OC1CC2C(C)(C)C(=O)C=C[C@]2(C)C2CCC3(C)C(c4ccoc4)C(=O)C4OC43[C@]12C (some centres not stated)
3. COC(=O)[C@H](Cc1ccccc1)NC(=O)OCC1OC(n2cc(C)c(=O)[nH]c2=O)CC1N=[N+]=[N-] (some centres not stated)
4. Cn1cc(-c2ncnc3ccc(-c4cnc(Cl)c(NS(C)(=O)=O)c4)cc23)c2ccccc21
5. N[C@@H](Cc1c[nH]c2ccccc12)C(=O)NC1CCN(Cc2c[nH]c3ccc(Cl)cc23)CC1
6. OCC1CC2C=CCC(C2)C1 (configuration not stated)
7. O=[N+]([O-])c1cc(I)cc(/C=N/NS(=O)(=O)c2ccc(F)cc2)c1O

stdout:
1. > 100 µM
2. 38.1 µM
3. > 100 µM
4. 0.634 µM
5. 17.2 µM
6. > 100 µM
7. 36.3 µM

Provide reported TGI for each item, in the same order as listed.
1. Oc1ccc(Br)cc1C=NC1CCCCC1
2. CCSC1=N/C(=C\c2ccco2)C(Nc2ccc(C)cc2)=N1
3. CCCCCCCCCCNC(=S)OC
4. COc1ccc(Cc2ccc3[nH]c(=O)cc(C)c3c2)cc1S(=O)(=O)O
5. CC(C)(C)c1cc[n+](C[n+]2ccc(C(C)(C)C)cc2)cc1
6. CCOC(=O)C1=NN(c2ccc(C)cc2)C2(c3ccccc3)C=C(c3ccccc3)N(C)CCN12 (configuration not stated)
7. COc1cc(/C=C2\N=C(c3ccccc3)N(c3nc4ccccc4s3)C2=O)cc(OC)c1OC

stdout:
1: > 100 µM; 2: > 100 µM; 3: 65.9 µM; 4: > 100 µM; 5: > 100 µM; 6: > 100 µM; 7: 74.5 µM

* * *

# Test system: COLO 205 colon
# protocol: NCI tumour cell line growth inhibition, 48 h
Could you please report measured log10 of TGI for the items listed next?
Base-10 log of TGI, unit µM.

{"molecule": "CN1C(c2ccccc2)CC(=NO)CC1c1ccccc1 (stereo not given)", "log10 of TGI": 1.68}

Provide reported log10 of TGI for each item, in the same order as listed.
1. Cn1cc(-c2ncnc3ccc(-c4cnc(Cl)c(NS(C)(=O)=O)c4)cc23)c2ccccc21
2. CC(C)(C)c1ccc(NS(=O)(=O)c2ccc(N)cc2)cc1
3. Cn1cnc(SC2=CC(=O)C=C3S[C@H]4C[C@@]23c2c(c(O)c3c5c2=NCCC=5C=N3)N4)c1CC(N)C(=O)O (stereo not given in full)
4. COc1ccc(-c2oc3ncnc(N)c3c2-c2ccc(NC(=O)Nc3cc(C(F)(F)F)ccc3F)cc2)cc1

stdout:
1. 1.12
2. 1.47
3. 0.48
4. 0.16
